target: 19 kD truncated collagenase-1 (MMP-1) (Homo sapiens, UniProt P03956); construct: 19 kD truncated collagenase-1 (MMP-1); test: Matrix metalloprotease inhibition, fluorogenic substrate: collagenase-1
Sequence (P03956 101-269 limits assumed): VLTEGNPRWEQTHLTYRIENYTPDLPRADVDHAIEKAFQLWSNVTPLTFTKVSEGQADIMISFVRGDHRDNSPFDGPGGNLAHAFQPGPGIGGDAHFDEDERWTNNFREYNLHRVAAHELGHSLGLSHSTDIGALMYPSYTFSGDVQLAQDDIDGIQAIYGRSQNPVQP
pKi: −log10 of the molar value.
Can you tell me pKi for the items I'm about to list?

Illustrative cases are given below, each with its answer.
compound: CCC[C@@H]([C@@H](CC(C)C)C(=O)N[C@H](C(=O)Nc1nccs1)[C@H](C)CCNC(N)=N[N+](=O)[O-])N(O)C=O [Example 4]
target_or_system: 19 kD truncated collagenase-1 (MMP-1) (Homo sapiens, UniProt P03956)
value_kind: pKi
obs_value: > 7.30

compound: CCC[C@@H]([C@@H](CC(C)C)C(=O)N[C@@H](CCCNC(N)=N[N+](=O)[O-])C(=O)Nc1nccs1)N(O)C=O [Example 1]
target_or_system: 19 kD truncated collagenase-1 (MMP-1) (Homo sapiens, UniProt P03956)
value_kind: pKi
obs_value: > 7.30

compound: NC(=N[N+](=O)[O-])NCCC[C@H](NC(=O)[C@H](CC1CCCCC1)[C@H](C1CC1)N(O)C=O)C(=O)Nc1nccs1 [Example 10]
target_or_system: 19 kD truncated collagenase-1 (MMP-1) (Homo sapiens, UniProt P03956)
value_kind: pKi
obs_value: 6.60 to 7.30

Field: pKi. Fill in for each record below.
1. CC(C)C[C@@H](C(=O)N[C@@H](CCCNC(N)=N[N+](=O)[O-])C(=O)Nc1nccs1)[C@H](Cc1ccccc1)N(O)C=O [Example 5]
2. CCC[C@@H]([C@@H](CC1CCC(C)CC1)C(=O)N[C@@H](CCCNC(N)=N[N+](=O)[O-])C(=O)Nc1nccs1)N(O)C=O (stereo partly drawn) [Example 7]
3. CCC[C@@H]([C@@H](Cc1ccc(C)s1)C(=O)N[C@@H](CCCNC(N)=N[N+](=O)[O-])C(=O)Nc1nccs1)N(O)C=O [Example 9]

> 7.30
6.60 to 7.30
< 6.00
